Assign AC50 to each entry below.
- system-name: human PAH with the R408W mutation (Homo sapiens, UniProt P00439, R408W)
- Construct: expressed in transfected cells
- Sequence (P00439 1-452 R408W): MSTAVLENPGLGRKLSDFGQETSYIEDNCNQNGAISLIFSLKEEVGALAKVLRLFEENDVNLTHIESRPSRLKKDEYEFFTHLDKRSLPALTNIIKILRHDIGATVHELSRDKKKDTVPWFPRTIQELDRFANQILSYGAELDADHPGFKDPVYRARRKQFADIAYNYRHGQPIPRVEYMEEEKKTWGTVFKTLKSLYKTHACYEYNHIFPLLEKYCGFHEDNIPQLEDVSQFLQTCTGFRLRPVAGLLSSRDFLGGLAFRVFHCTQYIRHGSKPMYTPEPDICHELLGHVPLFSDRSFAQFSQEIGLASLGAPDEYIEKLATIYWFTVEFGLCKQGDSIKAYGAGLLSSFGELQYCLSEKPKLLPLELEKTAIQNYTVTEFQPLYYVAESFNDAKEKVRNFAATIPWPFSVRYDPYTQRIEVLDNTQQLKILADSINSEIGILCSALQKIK
- assay-details: Cell Based Phenylalanine Flux Assay
- condition-parameters: A375 cells expressing human R408W PAH; 24 hrs compound incubation; 13C-Tyrosine by LC-MS; average where tested multiple times; read-out: AC50

q: Given the entry O=C(c1oc(OCCC(F)(F)F)nc1C(F)F)N1CCc2[nH]cnc2[C@H]1c1nc2ccccc2s1 [Example 1772] , report its measured AC50.
a: < 500 nM

q: Given the entry CN(C)Cc1ccc2c(C(=O)N3CCc4[nH]cnc4[C@H]3c3nc4c(F)cccc4s3)cnn2c1 [Example 1619] , report its measured AC50.
a: 500 to 1000 nM

q: Given the entry O=C(c1nncs1)N1CCc2[nH]cnc2[C@H]1c1nc2cc(F)ccc2s1 [Example 1299] , report its measured AC50.
a: 1000 to 5000 nM

q: Given the entry CN1CCN(c2nc(C(F)(F)F)c(C(=O)N3CCc4[nH]cnc4[C@@H]3c3nc4ccccc4s3)o2)CC1 [Example 1574] , report its measured AC50.
a: < 500 nM

q: Given the entry C[C@H](O)c1nc(C(F)F)c(C(=O)N2CCc3[nH]cnc3[C@@H]2c2nc3ccccc3s2)o1 [Example 2096] , report its measured AC50.
a: 1000 to 5000 nM

q: Given the entry O=C(CCc1nccs1)N1CCc2[nH]cnc2[C@H]1c1nc2cccc(Br)c2s1 [Example 1121] , report its measured AC50.
a: 500 to 1000 nM

q: Given the entry Cc1ncoc1C(=O)N1CCc2[nH]cnc2[C@H]1c1nc2ccccc2s1 [Example 1161] , report its measured AC50.
a: < 500 nM

q: Given the entry CC(C)(C)OC(=O)N1CC(c2nnc(C(=O)N3CCc4[nH]cnc4[C@@H]3c3nc4ccccc4s3)o2)C1 [Example 1894] , report its measured AC50.
a: 1000 to 5000 nM

q: Given the entry Cc1nnc(CCC(=O)N2CCc3[nH]cnc3[C@@H]2c2nc3ccccc3s2)s1 [Example 1020] , report its measured AC50.
a: > 5000 nM

q: Given the entry O=C(CC1(O)CCC1)N1CCc2[nH]cnc2[C@H]1c1nc2ccccc2s1 [Example 1657] , report its measured AC50.
a: < 500 nM

q: Given the entry O=C(c1nnc(-c2ccccn2)o1)N1CCc2[nH]cnc2[C@H]1c1nc2c(F)cccc2s1 [Example 1602] , report its measured AC50.
a: < 500 nM

q: Given the entry Cc1csc(CCC(=O)N2CCc3[nH]cnc3[C@@H]2c2nc3ccccc3s2)n1 [Example 1080] , report its measured AC50.
a: > 5000 nM

q: Given the entry Cc1ncoc1C(=O)N1C[C@@H](C)c2[nH]cnc2[C@H]1c1nc2ccccc2s1 [Example 1547] , report its measured AC50.
a: 1000 to 5000 nM

q: Given the entry O=C(C1CC1)N1CCc2[nH]cnc2[C@H]1c1nc2ccccc2s1 [Example 1073] , report its measured AC50.
a: 1000 to 5000 nM

q: Given the entry O=C(c1cnn(CC(F)(F)F)c1C(F)F)N1CCc2[nH]cnc2[C@@H]1c1nc2ccccc2s1 [Example 1974] , report its measured AC50.
a: 1000 to 5000 nM

q: Given the entry O=C(c1ccn2ncccc12)N1CCc2[nH]cnc2[C@H]1c1nc2ccccc2s1 [Example 1529] , report its measured AC50.
a: 500 to 1000 nM

###

Assign AC50 to each entry below.
- system-name: human PAH with the R408W mutation (Homo sapiens, UniProt P00439, R408W)
- Construct: expressed in transfected cells
- assay-details: Cell Based Phenylalanine Flux Assay
- condition-parameters: A375 cells expressing human R408W PAH; 24 hrs with compound; 13C-Tyrosine by LC-MS; average where tested multiple times; read-out: AC50

q: Look up AC50 with human PAH with the R408W mutation (Homo sapiens, UniProt P00439, R408W) for this compound: O=C(Cc1nc(C(F)(F)F)cs1)N1CCc2[nH]cnc2[C@H]1c1nc2ccccc2[nH]1
a: 1 to 5 µM

q: Look up AC50 with human PAH with the R408W mutation (Homo sapiens, UniProt P00439, R408W) for this compound: O=C(c1cnn2ccc(F)cc12)N1CCc2[nH]cnc2C1c1nc2ccc(Br)cc2[nH]1 (stereo not shown)
a: > 5 µM

q: Look up AC50 with human PAH with the R408W mutation (Homo sapiens, UniProt P00439, R408W) for this compound: O=C(C1CC1)N1CCc2[nH]cnc2C1c1nc2ccc(F)cc2[nH]1 (stereo not shown)
a: > 5 µM

q: Look up AC50 with human PAH with the R408W mutation (Homo sapiens, UniProt P00439, R408W) for this compound: O=C(c1cnn2cccc(F)c12)N1CCc2[nH]cnc2C1c1nc2cc(F)ccc2s1 (stereo not shown)
a: > 5 µM

q: Look up AC50 with human PAH with the R408W mutation (Homo sapiens, UniProt P00439, R408W) for this compound: Cn1nc(C#N)cc1C(=O)N1CCc2[nH]cnc2C1c1nc2c(F)cccc2s1 (stereo not shown)
a: 1 to 5 µM

q: Look up AC50 with human PAH with the R408W mutation (Homo sapiens, UniProt P00439, R408W) for this compound: O=C(Cc1nc(C(F)(F)F)cs1)N1CCc2[nH]cnc2C1c1nc2ccc(F)cc2[nH]1 (stereo not shown)
a: > 5 µM

q: Look up AC50 with human PAH with the R408W mutation (Homo sapiens, UniProt P00439, R408W) for this compound: c1ccc2sc([C@@H]3c4nc[nH]c4CCN3CC3CC3)nc2c1 (single isomer, unassigned)
a: 1 to 5 µM

q: Look up AC50 with human PAH with the R408W mutation (Homo sapiens, UniProt P00439, R408W) for this compound: O=C(c1cnn2cc(Br)ccc12)N1CCc2[nH]cnc2C1c1nc2ccc(F)cc2s1 (stereo not shown)
a: > 5 µM

q: Look up AC50 with human PAH with the R408W mutation (Homo sapiens, UniProt P00439, R408W) for this compound: O=C(C1CC1)N1CCc2[nH]cnc2C1c1nc2ccc(Br)cc2s1 (stereo not shown)
a: > 5 µM

q: Look up AC50 with human PAH with the R408W mutation (Homo sapiens, UniProt P00439, R408W) for this compound: Cc1nnc(C(=O)N2CCc3[nH]cnc3C2c2nc3ccccc3[nH]2)s1 (stereo not shown)
a: > 5 µM

q: Look up AC50 with human PAH with the R408W mutation (Homo sapiens, UniProt P00439, R408W) for this compound: O=C(c1nc2c(F)cccc2s1)N1CCc2[nH]cnc2[C@H]1c1nc2ccccc2[nH]1
a: 1 to 5 µM

q: Look up AC50 with human PAH with the R408W mutation (Homo sapiens, UniProt P00439, R408W) for this compound: O=C(c1nc2ccc(F)cc2s1)N1CCc2[nH]cnc2[C@H]1c1nc2ccccc2[nH]1
a: 1 to 5 µM

q: Look up AC50 with human PAH with the R408W mutation (Homo sapiens, UniProt P00439, R408W) for this compound: Cc1nc(-c2ccccn2)c(C(=O)N2CCc3[nH]cnc3C2c2nc3c(F)cccc3s2)o1 (stereo not shown)
a: > 5 µM

q: Look up AC50 with human PAH with the R408W mutation (Homo sapiens, UniProt P00439, R408W) for this compound: O=C(c1ccn[nH]1)N1CCc2[nH]cnc2C1c1nc2c(F)cccc2s1 (stereo not shown)
a: > 5 µM

q: Look up AC50 with human PAH with the R408W mutation (Homo sapiens, UniProt P00439, R408W) for this compound: CC(C)(O)Cn1ncc(C(=O)N2CCc3[nH]cnc3C2c2nc3c(F)cccc3s2)c1C(F)F (stereo not shown)
a: > 5 µM

q: Look up AC50 with human PAH with the R408W mutation (Homo sapiens, UniProt P00439, R408W) for this compound: CC(C)(O)c1cc(C(=O)N2CCc3[nH]cnc3[C@H]2c2nc3ccccc3s2)sn1 (single isomer, unassigned)
a: 1 to 5 µM

q: Look up AC50 with human PAH with the R408W mutation (Homo sapiens, UniProt P00439, R408W) for this compound: O=C(c1nccs1)N1CCc2[nH]cnc2C1c1nc2ccc(Br)cc2s1 (stereo not shown)
a: 1 to 5 µM

q: Look up AC50 with human PAH with the R408W mutation (Homo sapiens, UniProt P00439, R408W) for this compound: Cn1nc(C(F)(F)F)nc1C(=O)N1CCc2[nH]cnc2C1c1nc2ccccc2s1 (stereo not shown)
a: 1 to 5 µM

q: Look up AC50 with human PAH with the R408W mutation (Homo sapiens, UniProt P00439, R408W) for this compound: Cc1nc(C(=O)N2CCc3[nH]cnc3C2c2nc3ccccc3s2)n(C)n1 (stereo not shown)
a: > 5 µM

q: Look up AC50 with human PAH with the R408W mutation (Homo sapiens, UniProt P00439, R408W) for this compound: O=C(Cc1cncs1)N1CCc2[nH]cnc2C1c1nc2ccccc2s1 (stereo not shown)
a: 1 to 5 µM

q: Look up AC50 with human PAH with the R408W mutation (Homo sapiens, UniProt P00439, R408W) for this compound: O=C(CCc1nc2ccccc2s1)N1CCc2[nH]cnc2[C@H]1c1nc2ccccc2[nH]1
a: 1 to 5 µM

q: Look up AC50 with human PAH with the R408W mutation (Homo sapiens, UniProt P00439, R408W) for this compound: Cc1nc(CCCN(C)C)oc1C(=O)N1CCc2[nH]cnc2C1c1nc2ccccc2s1 (stereo not shown)
a: > 5 µM

q: Look up AC50 with human PAH with the R408W mutation (Homo sapiens, UniProt P00439, R408W) for this compound: CC(=O)Cn1ncc(C(=O)N2CCc3[nH]cnc3C2c2nc3c(F)cccc3s2)c1Cl (stereo not shown)
a: 1 to 5 µM

q: Look up AC50 with human PAH with the R408W mutation (Homo sapiens, UniProt P00439, R408W) for this compound: O=C(N1CC[C@@H](c2ccccc2)C1)N1CCc2[nH]cnc2[C@H]1c1nc2ccccc2s1 (single isomer, unassigned)
a: 1 to 5 µM

q: Look up AC50 with human PAH with the R408W mutation (Homo sapiens, UniProt P00439, R408W) for this compound: Cc1nnc(CCC(=O)N2CCc3[nH]cnc3C2c2nc3ccc(Br)cc3[nH]2)s1 (stereo not shown)
a: 1 to 5 µM

q: Look up AC50 with human PAH with the R408W mutation (Homo sapiens, UniProt P00439, R408W) for this compound: O=C(Cc1cnco1)N1CCc2[nH]cnc2C1c1nc2ccccc2s1 (stereo not shown)
a: 1 to 5 µM

q: Look up AC50 with human PAH with the R408W mutation (Homo sapiens, UniProt P00439, R408W) for this compound: O=C(C1CCCCC1)N1CCc2[nH]cnc2[C@H]1c1nc2ccccc2[nH]1
a: 1 to 5 µM

q: Look up AC50 with human PAH with the R408W mutation (Homo sapiens, UniProt P00439, R408W) for this compound: O=C(c1nnc(CCCN2CCOCC2)o1)N1CCc2[nH]cnc2C1c1nc2ccccc2s1 (stereo not shown)
a: > 5 µM

q: Look up AC50 with human PAH with the R408W mutation (Homo sapiens, UniProt P00439, R408W) for this compound: CN(C)Cc1ccc2c(C(=O)N3CC4(CC4)c4[nH]cnc4C3c3nc4ccccc4s3)cnn2c1 (stereo not shown)
a: 1 to 5 µM
